experiment_description: intrinsic fluorescence of library compounds, ex339/em460 – biochemical, MLSMR library, data from DPM-DC assay, artefact control, profiling panel (AID 709);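 also: signal is the first read of a kinetic run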
experimental_context: compound autofluorescence, ex339/em460 nm, NADH buffer; at 10 µM; 1 = no-compound wells, NADH background
Hit rate of the full screen: of about 65,000 compounds, about 3,600 (5.5%) were called active.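 The calls were made as follows: active = at 10 µM, mean starting fluorescence two-fold or more over control wells; inactive = the rest.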 Shown is part of a subset that was picked to be rich in actives.
Possible outcomes: active, inactive

[
  {
    "compound": "N#Cc1c2c(c(-c3ccccc3)[nH]c1=O)CCCC2",
    "label_value": "inactive"
  },
  {
    "compound": "Cc1cccc(-n2c(N)cc(=O)nc2SC(C)C(=O)NC2CCCCC2)c1 (centres undefined)",
    "label_value": "inactive"
  },
  {
    "compound": "CC(C)Cn1c(CCC(=O)O)ccc1-c1cccs1",
    "label_value": "active"
  },
  {
    "compound": "O=C(CSc1nnc(Cc2ccccc2)n1-c1ccccc1)N1CCOCC1",
    "label_value": "inactive"
  },
  {
    "compound": "CCOc1ccc(-c2nnc3ccc(SC)nn23)cc1",
    "label_value": "inactive"
  },
  {
    "compound": "COc1ccc(CNC2CCCCC2)cc1",
    "label_value": "inactive"
  },
  {
    "compound": "Cc1ccc(C)c(NC(=O)C2CCCN2C(=O)OC(C)(C)C)c1 (centres undefined)",
    "label_value": "inactive"
  },
  {
    "compound": "O=C(c1cccs1)N1CCC(c2nc3ccccc3s2)CC1",
    "label_value": "inactive"
  },
  {
    "compound": "COc1ccc2c(c1)CCc1c(C(=O)N3CCCC3)noc1-2",
    "label_value": "inactive"
  },
  {
    "compound": "CCCC(=O)NC(C)C(c1cccs1)N1CCN(c2ccccc2)CC1 (centres undefined)",
    "label_value": "inactive"
  },
  {
    "compound": "CN1c2ccccc2-c2nc3ccccc3n2C1c1ccco1 (centres undefined)",
    "label_value": "active"
  },
  {
    "compound": "COCCn1nnnc1CN1CCC(NC(=O)Nc2cccc(OC)c2)CC1",
    "label_value": "inactive"
  },
  {
    "compound": "O=C(OC1CCOC1=O)c1ccc(-c2nc3ccccc3s2)s1 (centres undefined)",
    "label_value": "active"
  },
  {
    "compound": "c1coc(-c2nc3nc4ccccc4n3nc2-c2ccco2)c1",
    "label_value": "inactive"
  }
]

----------
experiment_description: intrinsic fluorescence of library compounds, ex339/em460 – biochemical, MLSMR library, data from DPM-DC assay, artefact control, profiling panel (AID 709);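 also: signal is the first read of a kinetic run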
experimental_context: compound autofluorescence, ex339/em460 nm, NADH buffer; at 10 µM; stronger effect = higher value; 1 = no-compound wells, NADH background
In all, about 65,000 compounds went through this assay and about 3,600 (5.5%) were called active. This excerpt belongs to a sample that is enriched for actives.

[
  {
    "compound": "O=C(c1cccs1)N1CCN(C(=O)N2CCOCC2)CC1",
    "fluorescence fold increase": 1.11
  },
  {
    "compound": "COc1ccc(OC)c2sc(NC(=O)C3COc4ccccc4O3)nc12 (centres undefined)",
    "fluorescence fold increase": 1.19
  },
  {
    "compound": "CSc1nc(N)c(C#N)c(-c2ccccc2Cl)c1C#N",
    "fluorescence fold increase": 1.19
  },
  {
    "compound": "COc1ccc(-c2noc(COc3ccc(Cl)c(C)c3)n2)cc1",
    "fluorescence fold increase": 1.02
  }
]

Origin of values: PubChem BioAssay AID709
